Reported values of % DAMGO + BFNA for individual entries
target: mu opiate receptor (MOR) (Rattus norvegicus, UniProt P33535); construct: from tissue; host or cells: striatum (membrane preparation); format: biochemical
Sequence (P33535 whole entry): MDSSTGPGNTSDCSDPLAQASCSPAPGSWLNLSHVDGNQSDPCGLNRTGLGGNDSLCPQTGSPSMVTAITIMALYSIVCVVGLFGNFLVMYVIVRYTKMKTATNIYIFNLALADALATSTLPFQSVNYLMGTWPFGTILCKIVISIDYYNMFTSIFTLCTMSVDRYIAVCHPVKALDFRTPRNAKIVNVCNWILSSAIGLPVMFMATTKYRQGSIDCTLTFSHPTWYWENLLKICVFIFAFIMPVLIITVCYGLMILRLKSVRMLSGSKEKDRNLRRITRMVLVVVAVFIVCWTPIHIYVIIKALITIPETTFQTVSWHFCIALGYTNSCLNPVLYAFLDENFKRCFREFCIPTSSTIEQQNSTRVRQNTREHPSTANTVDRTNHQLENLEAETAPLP
Returns: string containing the number followed by the unit.

* COc1ccc(C(=O)CC2c3c(cc4c(c3OC)OCO4)CC[N+]2(C)C)cc1C (centres unmarked) | 123.6%

Enter reported % DAMGO + BFNA observed with mu opiate receptor (MOR) (Rattus norvegicus, UniProt P33535) for Nc1ccc(C(=O)N2CCC3(CC2)OCCN3S(=O)(=O)c2ccc(N)cc2)cc1
44.5%

Enter reported % DAMGO + BFNA observed with mu opiate receptor (MOR) (Rattus norvegicus, UniProt P33535) for COc1c2c(cc3c1OCO3)CCN(CC(O)COC1CC(C)CCC1C(C)C)C2 (centres unmarked)
26.8%

Enter reported % DAMGO + BFNA observed with mu opiate receptor (MOR) (Rattus norvegicus, UniProt P33535) for CC(=O)c1ccc(S(=O)(=O)N2CCC3(CC2)NC(=O)CN3Cc2ccccc2)cc1 [Compound C0085M]
112.6%

Enter reported % DAMGO + BFNA observed with mu opiate receptor (MOR) (Rattus norvegicus, UniProt P33535) for COc1ccc(CCC(=O)CC2c3c(cc4c(c3OC)OCO4)CC[N+]2(C)C)cc1OC (centres unmarked)
163.9%
